Value source: PubChem BioAssay (NCI)

System: RXF 393 renal
Assay: NCI tumour cell line growth inhibition, 48 h
Reported log10 of TGI values for the following compounds.
Hello, just confirming the data are log10 of TGI with units of µM.

Solved entries (count: 6):
compound: Clc1ccccc1CNc1c2ccccc2nc2ccccc12
measurement-target: RXF 393 renal
log10 of TGI: 0.65

compound: C=C1C(=O)O[C@H]2[C@H]1CC/C(COC(=O)C(C)c1ccc(CC(C)C)cc1)=C\CC[C@@]1(C)O[C@@H]21 (stereo not given in full)
measurement-target: RXF 393 renal
log10 of TGI: 0.44

compound: CCN(CCCl)c1cc(CN(C)C)cc(NC(=O)C23CCC(C(=O)Nc4cc(CN(C)C)cc(N(CC)CCCl)c4)(CC2)CC3)c1
measurement-target: RXF 393 renal
log10 of TGI: 0.50

compound: CCOc1ccccc1-c1nc2c(s1)C(=O)c1ccccc1C2=O
measurement-target: RXF 393 renal
log10 of TGI: 1.50

compound: OCc1cc2ccncc2c2c1[nH]c1ccccc12
measurement-target: RXF 393 renal
log10 of TGI: 0.99

compound: C#Cc1cc(Br)c(OC(=O)C(C)(C)C)c(-c2cc(C#C)cc(Br)c2OC(=O)C(C)(C)C)c1
measurement-target: RXF 393 renal
log10 of TGI: 1.67

Now consider a different compound.
Task item: Fill blank: measured log10 of TGI of the compound `CO/N=C(\COc1ccc2oc(-c3ccccc3)cc(=O)c2c1)c1ccc(OC)cc1` is ____.
Reply: 1.99

====

System: M14 melanoma
Assay: NCI tumour cell line growth inhibition, 48 h
quantity-name: TGI

Some entries whose results are on file:
compound: C=C1C(=O)O[C@H]2[C@H]1CC/C(COC(=O)C(C)c1ccc(CC(C)C)cc1)=C\CC[C@@]1(C)O[C@@H]21 (some centres undefined)
quantity-name: TGI
measured: 2.13 µM
//
compound: O/N=C1/CC2(N3CCOCC3)C3CC/C(=N\O)C2CC1(Cc1ccccc1)C3 (centres undefined)
quantity-name: TGI
measured: > 100 µM
//
compound: O=S(=O)(SC1=NCCN1)c1cccc2ccccc12
quantity-name: TGI
measured: > 100 µM
//
compound: O=C1c2c(ccc3c2CCC3)CC12Cc1ccccc1C2
quantity-name: TGI
measured: > 100 µM
//
compound: O=C1/C(=C/c2ccc(Oc3ccccc3)cc2)N=C(c2ccccc2)N1c1ccc(S(=O)(=O)Nc2nccs2)cc1
quantity-name: TGI
measured: 72.3 µM
//
compound: C#Cc1cc(Br)c(OC(=O)C(C)(C)C)c(-c2cc(C#C)cc(Br)c2OC(=O)C(C)(C)C)c1
quantity-name: TGI
measured: > 100 µM

Task item: Can you look up TGI on M14 melanoma for `COc1ccc(C2=C(N)c3ncccc3C2=O)cc1` ?
Reply: > 100 µM

Task item: Same lookup for `O=C(O)c1c(=O)cccc2ssc12` , please.
Reply: 4.07 µM

====

Tested on: EKVX NSCLC
Assay: NCI tumour cell line growth inhibition, 48 h
quantity-name: TGI (µM)
Please give a number only; it is taken to be in µM.

molecule: CSc1snc2sc3c(Cl)nnnc3c12
endpoint-unit: µM
measured: 38.6

molecule: CC([C@H]1CCC2C3CCC4C[C@@H](N)CC[C@]4(C)C3CC[C@@]21C)N(C)C (some centres undefined)
endpoint-unit: µM
measured: 54.8

molecule: C=C1C(=O)O[C@H]2[C@H]1CC/C(COC(=O)C(C)c1ccc(CC(C)C)cc1)=C\CC[C@@]1(C)O[C@@H]21 (some centres undefined)
endpoint-unit: µM
measured: 3.35

Task item: Hi! What's the reported TGI for `CC(C)C[C@H](NC(=O)[C@H](Cc1ccc(F)cc1)NC(=O)c1ccccn1)B(O)O` on EKVX NSCLC?
Reply: 0.0933

====

Below, each entry is listed with its recorded TGI.
System: OVCAR-3 ovarian
Test: NCI tumour cell line growth inhibition, 48 h
State just the number; it will be interpreted in µM.

Reference set, count: 3
compound: COc1cc(/C=C\c2nnc(/C=C\c3ccc(O)c(OC)c3)s2)ccc1O
TGI (µM): 10.7
--
compound: O=c1[nH]nc(-c2ccccc2)n1/N=C/c1ccccc1Cl
TGI (µM): 57.9
--
compound: Cc1ccc(OCC2OC(n3cnc4c(Cl)nc(Cl)nc43)CC2Oc2ccc(C)cc2)cc1 (stereo not given)
TGI (µM): 6

Consider now this further compound.
Task item: Requested read-out: TGI. Entry: `CC1(C)NCCC[C@]2(C)[C@H]3CC[C@@H]4[C@H]5[C@H](C(=O)/C=C/c6ccccn6)CC[C@]5(CO)CC[C@@]4(C)[C@]3(C)CC[C@@H]12`
Reply: 4.89

====

System: OVCAR-8 ovarian
Assay: NCI tumour cell line growth inhibition, 48 h; in the data active = GI50 below about 0.43 µM; inactive = the rest
Hi there, use one of these labels in your reply, thanks! T (active), F (inactive)

Solved entries (count: 5):
structure-notation: Cc1cc2c(C(N)=O)c(N)n(-c3c(C)ccc(O)c3C)c2nc1C
assigned-label: F

structure-notation: CC(=[N-])N1CCC[C@@H](Nc2c3ccccc3nc3ccccc23)C1.[Cl][Pt].[NH-]CCC[NH-]
assigned-label: F

structure-notation: [N-]=[N+]=NCCCn1c2c(c3ccc([N+](=O)[O-])cc3c1=O)C(=O)c1cc(F)ccc1-2
assigned-label: F

structure-notation: CO/N=C(\COc1ccc2oc(-c3ccccc3)cc(=O)c2c1)c1ccc(OC)cc1
assigned-label: F

structure-notation: NS(=O)(=O)CC1CC[CH-]CC1.[Cl-].[Cl-].[Cl-].[Cl-].[Cl-].[Sb+5].c1ccncc1
assigned-label: F

Task item: Fill in: this test's call for `C/C(=C\c1cc(C(F)(F)F)n(-c2ccc(N)cc2)n1)[C@@H]1C[C@@H]2O[C@]2(C)CCC[C@H](C)[C@H](O)[C@@H](C)C(=O)C(C)(C)[C@@H](O)CC(=O)O1` is ___
Reply: T

Task item: Another: `CCOC(=O)c1cc(-c2ccccc2)[nH]c1N/N=C/c1ccc(Cl)cc1`
Reply: F

Task item: What would you report for `CC(=O)O[C@H](C[C@H](C(C)C)N(C)C(=O)[C@@H](NC(=O)[C@H]1CCCN1C)C(C)C)c1nc(C(=O)N[C@@H](Cc2ccccc2)C[C@H](C)C(=O)O)c(C)s1` ?
Reply: T

====

Examples of compounds with documented GI50 follow.
Tested on: TK-10 renal
Assay: NCI tumour cell line growth inhibition, 48 h

Examples with answers:
compound: CCOC(=O)C#Cc1c(C(=O)OCC)nnn1Cc1ccc([N+](=O)[O-])cc1
GI50: 1.87 µM
--
compound: CN(CC(=O)Nc1nc2ccccc2[nH]1)S(=O)(=O)c1ccc(Cl)cc1
GI50: > 100 µM
--
compound: CCCCCCCCCNC(=O)/C=C/c1ccc(O)c(O)c1
GI50: 11.1 µM
--
compound: O=[N+]([O-])c1cc(C(F)(F)F)ccc1Sc1ccc(C(F)(F)F)cc1[N+](=O)[O-]
GI50: 28.3 µM
--
compound: NS(=O)(=O)NCCNc1nonc1C(=Nc1ccc(F)c(Br)c1)NO
GI50: 29.8 µM

Task item: Value lookup for GI50; key = `COC(=O)c1cc2c3ccccc3[nH]c2c2sccc12`
Reply: 13.8 µM

Task item: // same read-out, input: `Fc1cccc(-n2ccc(-c3ccccc3)nc2=S)c1`
Reply: 18.2 µM

Task item: Query Cc1ccc(C(=O)/C(=C\c2ccc([N+](=O)[O-])cc2)S(=O)Cc2ccc(Cl)cc2)cc1 (stereo not drawn) next
Reply: 1.86 µM

====

Listed compounds paired with reported TGI
Tested on: HL-60(TB) leukemia
Test: NCI tumour cell line growth inhibition, 48 h
The answer is to be given in µM; state only the numeric part.

structure-notation: N#CC(C#N)N=Nc1ccc(-c2nc3ccccc3o2)cc1
endpoint-unit: µM
TGI: 40.2

Shift focus to the following entry.
Task item: Field: TGI (HL-60(TB) leukemia). Entry: `Oc1c(Cl)cc(Cl)cc1C(c1cc(Cl)cc(Cl)c1O)C(Cl)(Cl)Cl`
Reply: 10.3

====

Test system: TK-10 renal
Test: NCI tumour cell line growth inhibition, 48 h
quantity-name: TGI

# annotated cases, reported TGI shown
compound: COc1ccc(N=NC(=Nc2ccc(Cl)cc2)c2ccc(N(CCC#N)CCC#N)cc2)cc1
measurement-target: TK-10 renal
TGI: > 100 µM
--
compound: O=[N+]([O-])c1cc(C(F)(F)F)ccc1Sc1ccc(C(F)(F)F)cc1[N+](=O)[O-]
measurement-target: TK-10 renal
TGI: > 100 µM
--
compound: OC(c1ccc2c(c1)OCO2)c1ccc2c(c1)OCO2
measurement-target: TK-10 renal
TGI: > 100 µM

Task item: Please give the measured TGI for this compound: `C[N+](C)(C)c1cc2c(nn1)Nc1ccccc1S2`
Reply: > 100 µM

Task item: Field entry: `Cc1ccc(NS(=O)(=O)c2cccc(C#N)c2)c2[nH]cc(C#N)c12`
Reply: > 92.5 µM

Task item: Next entry: `CCOC(=O)c1c(C)n([O-])c2cc(Cl)c(Cl)cc2[n+]1=O`
Reply: 54.8 µM

Task item: Moving on to Cc1cccc2c1CCC21OC(=O)c2c1ccc1ccccc21 (stereo not given)
Reply: > 100 µM

Task item: Same again, this time with `CCn1c(-c2nonc2N)nc2c(C#CC(C)(C)O)ncc(OC[C@H]3CCCNC3)c21`
Reply: 42.6 µM
